# ASSAYED SYSTEM: cynomolgus IL-23 (cynomolgus)
# ASSAY COMMENT: cell-based or functional assay
MEASURED ATTRIBUTE: IC50, splenocyte assay, 3.8 pM cIL-23 (pM)
Answer with a number only, understood to be in pM.

Q: Give the measured IC50, splenocyte assay, 3.8 pM cIL-23 of P23IL119A3-35GS-81A12 (bispecific antibody) EVQLVESGGGLVQAGGSLRLSCAASGRIFSLPASGNIFNLLTIAWHRQAPGMQRELVATINSGSRTNYADSVKGRFTISRDNAQKTVYLQMNNLKPEDTAVYYCQTSGSGSPNFWGQGTQVTVSSGGGGSGGGGSGGGGSGGGGSGGGGSGGGGSGGGGSEVQLVESGGGLVQAGGSLRLSCAASGRTLSSYAMGWFRQAPGKEREFVARISQGGTAIYYADSVKGRFTISRDNAKNTVYLQMNSLKPEDTAVYYCAKDPSPYYRGSAYLLSGSYDSWGQGTQVTVSS .
A: 5

Q: Give the measured IC50, splenocyte assay, 3.8 pM cIL-23 of P23IL119A3-35GS-81G2 (bispecific antibody) EVQLVESGGGLVQAGGSLRLSCAASGRIFSLPASGNIFNLLTIAWHRQAPGMQRELVATINSGSRTNYADSVKGRFTISRDNAQKTVYLQMNNLKPEDTAVYYCQTSGSGSPNFWGQGTQVTVSSGGGGSGGGGSGGGGSGGGGSGGGGSGGGGSGGGGSEVQLVESGGGLVQPGGSLRLSCIASGLPFSTKSMGWFRQAPGKEREFVARISPGGTSRYYGDFVKGRFAISRDNAKNTTWLQMNSLKAEDTAVYYCASGERSTYIGSNYYRTNEYDYWGTGTQVTVSS .
A: 13

Q: Give the measured IC50, splenocyte assay, 3.8 pM cIL-23 of P23IL119A3-35GS-81G2-GGGC-PEG40 branched (bispecific antibody, branched mPEG40 (maleimide) on the C-terminal Cys of GGGC) EVQLVESGGGLVQAGGSLRLSCAASGRIFSLPASGNIFNLLTIAWHRQAPGMQRELVATINSGSRTNYADSVKGRFTISRDNAQKTVYLQMNNLKPEDTAVYYCQTSGSGSPNFWGQGTQVTVSSGGGGSGGGGSGGGGSGGGGSGGGGSGGGGSGGGGSEVQLVESGGGLVQPGGSLRLSCIASGLPFSTKSMGWFRQAPGKEREFVARISPGGTSRYYGDFVKGRFAISRDNAKNTTWLQMNSLKAEDTAVYYCASGERSTYIGSNYYRTNEYDYWGTGTQVTVSSGGGC .
A: 5.3

Q: Give the measured IC50, splenocyte assay, 3.8 pM cIL-23 of P23IL37D5 (VHH, p19+ Nanobody; c-myc, His6-tagged; also called PIL2337D5) VHH: EVQLVESGGGLVQPGGSLRLSCAASGFTLDYLAIGWFRQAPGKEREGVSCVSSSGQYTYYADSVKGRFTISRDNAESTVYLQMNSLKPEDTAVYYCATDPECYRVRGYYNGEYDYWGQGTQVTVSS .
A: 212

Q: Give the measured IC50, splenocyte assay, 3.8 pM cIL-23 of P23IL119A3-35GS-81G2-GGGC-PEG40 linear (bispecific antibody, linear mPEG40 (maleimide) on the C-terminal Cys of GGGC) EVQLVESGGGLVQAGGSLRLSCAASGRIFSLPASGNIFNLLTIAWHRQAPGMQRELVATINSGSRTNYADSVKGRFTISRDNAQKTVYLQMNNLKPEDTAVYYCQTSGSGSPNFWGQGTQVTVSSGGGGSGGGGSGGGGSGGGGSGGGGSGGGGSGGGGSEVQLVESGGGLVQPGGSLRLSCIASGLPFSTKSMGWFRQAPGKEREFVARISPGGTSRYYGDFVKGRFAISRDNAKNTTWLQMNSLKAEDTAVYYCASGERSTYIGSNYYRTNEYDYWGTGTQVTVSSGGGC .
A: 4.7
